Sourced from ChEMBL document CHEMBL1130177

Lab note: pKi readings collected with UniProtKB P11511 for the following compounds.
pKi: −log10 of the molar value.

- compound: "C#CC[C@]12CCC(=O)C=C1CC[C@@H]1[C@@H]2CC[C@]2(C)C(=O)CC[C@@H]12"
  assay_system: "UniProtKB P11511"
  pKi: 7.82
- compound: "C#CC[C@H]1CC2C(CCC3(C)C(=O)CCC23)C2CCC(=O)C=C21 (stereo not given in full)"
  assay_system: "UniProtKB P11511"
  pKi: 7.18
- compound: "C#CC[C@@H]1CC2C3CCC(=O)C3(C)CCC2C2(C)CCC(=O)C=C12 (stereo not given in full)"
  assay_system: "UniProtKB P11511"
  pKi: 8.00
- compound: "C#CC[C@@H]1CC2C(CCC3(C)C(=O)CCC23)C2CCC(=O)C=C21 (stereo not given in full)"
  assay_system: "UniProtKB P11511"
  pKi: 7.32
- compound: "C#CC[C@H]1CC2C3CCC(=O)C3(C)CCC2C2(C)CCC(=O)C=C12 (stereo not given in full)"
  assay_system: "UniProtKB P11511"
  pKi: 7.43

###

- protocol_description: Compound was tested for inactivation kinetic values
- particulars: read-out: Ki app (inact)
Recorded KI (inactivation) for the following compounds

- compound: "C#CC[C@@H]1CC2C3CCC(=O)C3(C)CCC2C2(C)CCC(=O)C=C12 (stereo partly drawn)"
  KI (inactivation): "72.4 nM"
- compound: "C#CC[C@@H]1CC2C(CCC3(C)C(=O)CCC23)C2CCC(=O)C=C21 (stereo partly drawn)"
  KI (inactivation): "19.8 nM"
- compound: "C#CC[C@]12CCC(=O)C=C1CC[C@@H]1[C@@H]2CC[C@]2(C)C(=O)CC[C@@H]12"
  KI (inactivation): "59.5 nM"

###

- assay_system: Aromatase (Homo sapiens, UniProt P11511)
- Sequence (P11511 whole entry): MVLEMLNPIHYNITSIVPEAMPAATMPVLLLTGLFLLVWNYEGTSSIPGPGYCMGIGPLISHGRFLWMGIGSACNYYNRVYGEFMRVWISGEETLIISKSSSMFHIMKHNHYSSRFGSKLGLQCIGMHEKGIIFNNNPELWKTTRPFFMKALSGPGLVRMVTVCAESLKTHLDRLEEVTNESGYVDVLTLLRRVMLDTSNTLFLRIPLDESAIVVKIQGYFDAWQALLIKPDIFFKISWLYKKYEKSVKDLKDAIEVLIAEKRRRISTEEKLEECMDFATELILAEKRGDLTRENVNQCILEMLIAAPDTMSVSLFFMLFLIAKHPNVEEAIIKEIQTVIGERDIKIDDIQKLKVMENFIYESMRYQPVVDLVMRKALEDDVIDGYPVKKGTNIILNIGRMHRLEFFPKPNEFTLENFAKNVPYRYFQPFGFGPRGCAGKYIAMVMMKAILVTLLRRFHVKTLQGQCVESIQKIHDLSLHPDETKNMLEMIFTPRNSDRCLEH
Recorded IC50 for the following molecules

- molecule: "C#CC[C@@H]1CC2C3CCC(=O)C3(C)CCC2C2(C)CCC(=O)C=C12 (stereo not given in full)"
  assay_system: "Aromatase (Homo sapiens, UniProt P11511)"
  IC50, nM: 31
- molecule: "C#CC[C@@H]1CC2C(CCC3(C)C(=O)CCC23)C2CCC(=O)C=C21 (stereo not given in full)"
  assay_system: "Aromatase (Homo sapiens, UniProt P11511)"
  IC50, nM: 275
- molecule: "C#CC[C@H]1CC2C(CCC3(C)C(=O)CCC23)C2CCC(=O)C=C21 (stereo not given in full)"
  assay_system: "Aromatase (Homo sapiens, UniProt P11511)"
  IC50, nM: 187
- molecule: "C#CC[C@H]1CC2C3CCC(=O)C3(C)CCC2C2(C)CCC(=O)C=C12 (stereo not given in full)"
  assay_system: "Aromatase (Homo sapiens, UniProt P11511)"
  IC50, nM: 176
- molecule: "C#CC[C@]12CCC(=O)C=C1CC[C@@H]1[C@@H]2CC[C@]2(C)C(=O)CC[C@@H]12"
  assay_system: "Aromatase (Homo sapiens, UniProt P11511)"
  IC50, nM: 56.2
